- assayOverview: wn = mass fraction of the nth substance listed
- settings: 298.15 K; 101 kPa; Liquid; Alternating current cell with electrodes; w2 = 0.3103
Some compounds, each annotated with its measured electrical conductivity.
Respond numerically; units are S/m and should not be typed.

>  <compound>
C1CC[NH2+]C1.CCCCCC(=O)[O-] [pyrrolidinium hexanoate] + O

>  <readoutNumber>
2.65

$$$$
>  <compound>
Cc1ccc[n+](C)c1C.O=C[O-] [1,2,3-trimethylpyridinium formate] + O

>  <readoutNumber>
2.31

$$$$
>  <compound>
C1CC[NH2+]C1.CCCCCCC(=O)[O-] [pyrrolidinium heptanoate] + O

>  <readoutNumber>
2.12

$$$$

query: Form field: reported electrical conductivity of C1CC[NH2+]C1.CCCCCCCCC(=O)[O-] [pyrrolidinium nonanoate] + O
result: 0.754

query: Requested read-out: electrical conductivity. Entry: O=C[O-].c1ccc2[nH+]cccc2c1 [quinolinium formate] + O
result: 2.47

###

- settings: 298.15 K; 101 kPa; Liquid; Alternating current cell with electrodes
Each record here notes measured electrical conductivity.
Record the value in S/m, omitting the unit from your answer.

// solved cases for electrical conductivity follow
>  <molecule>
C1CC[NH2+]C1.CCCCCC(=O)[O-] [pyrrolidinium hexanoate]

>  <measurementKind>
electrical conductivity

>  <unitString>
S/m

>  <readoutNumber>
0.204

$$$$
>  <molecule>
C1CC[NH2+]C1.O=[N+]([O-])[O-] [pyrrolidinium nitrate]

>  <measurementKind>
electrical conductivity

>  <unitString>
S/m

>  <readoutNumber>
5.01

$$$$
>  <molecule>
Cc1cccc[n+]1C.O=C[O-] [1,2-dimethylpyridinium formate]

>  <measurementKind>
electrical conductivity

>  <unitString>
S/m

>  <readoutNumber>
1.04

$$$$

query: Fill blank: measured electrical conductivity of the molecule C1CC[NH2+]C1.CCCCCCC(=O)[O-] [pyrrolidinium heptanoate] is ____.
result: 0.186

query: Would you mind telling me what electrical conductivity value was observed for CC[NH+](C(C)C)C(C)C.O=C[O-] [ethyldiisopropylammonium formate] ?
result: 0.586

query: What does the data say about its electrical conductivity? Entry: O=C[O-].c1ccc2[nH+]cccc2c1 [quinolinium formate]
result: 0.415

query: Fill in the blank: the reported electrical conductivity of C1CC[NH2+]C1.CC(=O)[O-] [pyrrolidinium acetate] is ____.
result: 0.594

query: Return reported electrical conductivity; argument: C1CC[NH2+]C1.O=C[O-] [pyrrolidinium formate]
result: 3.29

query: # get_value(readout='electrical conductivity', item= CCCC(C)[NH3+].O=C[O-] (stereo not drawn) [2-pentanaminium formate] )
result: 0.036

query: Using the record for O [water] , report its electrical conductivity.
result: 0.0001

query: What value of electrical conductivity has been reported for the following molecule? C1CC[NH2+]C1.CCCCCCCCC(=O)[O-] [pyrrolidinium nonanoate]
result: 0.064

query: Could you share which electrical conductivity value was measured for C1CC[NH2+]C1.CCCCCCCC(=O)[O-] [pyrrolidinium octanoate] ?
result: 0.08

query: Return reported electrical conductivity; argument: Cc1ccc[n+](C)c1C.O=C[O-] [1,2,3-trimethylpyridinium formate]
result: 0.68

###

- assayOverview: wn = mass fraction of the nth substance listed
- settings: 298.15 K; 101 kPa; Liquid; Alternating current cell with electrodes; w2 = 0.5
measurementKind: electrical conductivity (S/m)
// units = S/m; emit number, no label

Example entries and their recorded answers appear below.
>  <molecule>
C1CC[NH2+]C1.CCCCCC(=O)[O-] [pyrrolidinium hexanoate] + O

>  <readoutNumber>
2.89

$$$$
>  <molecule>
O=C[O-].c1ccc2[nH+]cccc2c1 [quinolinium formate] + O

>  <readoutNumber>
3.81

$$$$
>  <molecule>
C1CC[NH2+]C1.CCCCCCCCC(=O)[O-] [pyrrolidinium nonanoate] + O

>  <readoutNumber>
1.44

$$$$
>  <molecule>
C1CC[NH2+]C1.CCCCCCC(=O)[O-] [pyrrolidinium heptanoate] + O

>  <readoutNumber>
2.6

$$$$

# next molecule below
query: Reported electrical conductivity, molecule CC[NH+](C(C)C)C(C)C.O=C[O-] [ethyldiisopropylammonium formate] + O : ____
result: 3.51
